Readings of log10 of IC50 for the listed molecules
# SYSTEM_UNDER_TEST: human P2X3 receptor (Homo sapiens (Human), UniProt P56373)
# Sequence (P56373 whole entry): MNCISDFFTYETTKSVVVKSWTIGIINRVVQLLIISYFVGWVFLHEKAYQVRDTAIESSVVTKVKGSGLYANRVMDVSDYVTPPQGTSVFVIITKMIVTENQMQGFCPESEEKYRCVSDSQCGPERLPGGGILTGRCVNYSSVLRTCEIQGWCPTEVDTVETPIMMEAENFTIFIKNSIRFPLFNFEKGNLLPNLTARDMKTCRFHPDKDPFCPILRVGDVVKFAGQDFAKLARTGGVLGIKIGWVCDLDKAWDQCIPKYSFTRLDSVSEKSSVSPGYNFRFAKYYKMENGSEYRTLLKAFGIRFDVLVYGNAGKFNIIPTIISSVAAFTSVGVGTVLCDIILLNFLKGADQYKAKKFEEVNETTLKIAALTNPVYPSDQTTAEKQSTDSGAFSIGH
# EXPERIMENT_SUMMARY: P2X3 receptor inhibition, ATP-evoked Fluo-3 fluorescence (FDSS 3000)
# CONDITION_DETAILS: C6BU-1 cell transfected with human P2X3 receptor gene
Recall that a logarithmic scale is used here: each number is log10 of IC50 in nM.

# annotated cases, reported log10 of IC50 shown
{"columns": ["MOLECULE", "MEASUREMENT_KIND", "OBSERVED_VALUE"],
 "data": [
  ["CC(C)Oc1ccc(Nc2nc(=O)n(CC(=O)N(C)C)c(=O)n2Cc2ccc(Cl)cc2)cc1F", "log10 of IC50", 2.55],
  ["CCOc1ccc(/N=c2\\[nH]c(=O)n(C[C@@H](C)C(=O)OC)c(=O)n2Cc2ccc(Cl)cc2)cc1", "log10 of IC50", 1.08],
  ["CC(C)Oc1ccc(Nc2nc(=O)n(CCC(=O)O)c(=O)n2CC2CCCCC2)cc1Cl", "log10 of IC50", 1.98],
  ["O=c1nc(Nc2ccc(Oc3ccccc3)cc2)n(Cc2ccc(Cl)cc2)c(=O)n1CCO", "log10 of IC50", 2.00],
  ["COc1ccc(/N=c2\\[nH]c(=O)n(CC(C)(C)C(=O)O)c(=O)n2Cc2ccc(Cl)cc2)cc1C", "log10 of IC50", 2.45],
  ["Cc1ccc(Cn2c(=O)n(CC(=O)NC(CO)CO)c(=O)[nH]/c2=N\\c2ccc(OC(C)C)c(F)c2)cc1", "log10 of IC50", 0.85],
  ["COC(=O)C[C@H](C)n1c(=O)[nH]/c(=N\\c2ccc(OC(C)C)c(Cl)c2)n(Cc2ccc(Cl)cc2)c1=O", "log10 of IC50", 1.46],
  ["CC(C)Oc1ccc(/N=c2\\[nH]c(=O)n(C[C@H](C)C(=O)O)c(=O)n2Cc2ccc(Cl)cc2)cc1Cl", "log10 of IC50", 0.95],
  ["CC(C)Cn1ccc2cc(/N=c3\\[nH]c(=O)n(CC(C)(C)C(=O)O)c(=O)n3Cc3ccc(Cl)cc3)ccc21", "log10 of IC50", 2.71],
  ["CCOc1ccc(/N=c2\\[nH]c(=O)n(C[C@H](C)C(=O)O)c(=O)n2Cc2ccc(Cl)cc2)cc1C", "log10 of IC50", 1.66]
]}

Exercise: Quick one: log10 of IC50 of `CCCn1ccc2cc(/N=c3\[nH]c(=O)n(CC(C)(C)C(=O)O)c(=O)n3Cc3ccc(Cl)cc3)ccc21` ?
Solution: 2.81

###

Readings of pIC50 for the listed compounds
# SYSTEM_UNDER_TEST: human P2X3 receptor (Homo sapiens (Human), UniProt P56373)
# EXPERIMENT_SUMMARY: P2X3 receptor inhibition, ATP-evoked Fluo-3 fluorescence (FDSS 3000)
# CONDITION_DETAILS: C6BU-1 cell transfected with human P2X3 receptor gene
The quantity pIC50 is defined as the negative base-10 logarithm of the molar concentration.

# annotated cases, reported pIC50 shown
{"columns": ["COMPOUND", "pIC50"],
 "data": [
  ["CCOc1nc(=O)n(Cc2ccc(Cl)cc2)/c(=N/c2ccc(OC(C)C)c(Cl)c2)[nH]1", 6.60],
  ["COC(=O)C(C)(C)Cn1c(=O)[nH]/c(=N\\c2cccc(Cl)c2)n(Cc2ccc(Cl)cc2)c1=O", 7.43],
  ["COC(=O)C(C)(C)Cn1c(=O)[nH]/c(=N\\c2ccc3nc(C)oc3c2)n(Cc2ccc(Cl)cc2)c1=O", 7.47],
  ["CC(C)c1cccc(Nc2nc(=O)n(CCO)c(=O)n2Cc2ccc(Cl)cc2)c1", 6.46]
]}

Exercise: Find the measured pIC50: item `CC(C)(Cn1c(=O)[nH]/c(=N\c2ccc(OC(F)F)cc2)n(Cc2ccc(Cl)cc2)c1=O)C(=O)O` , target or system human P2X3 receptor (Homo sapiens (Human), UniProt P56373).
Solution: 6.76

Exercise: Find the measured pIC50: item `Cc1nc2ccc(/N=c3\[nH]c(=O)n(CC(C)(C)C(=O)O)c(=O)n3Cc3ccc(Cl)cc3)cc2o1` , target or system human P2X3 receptor (Homo sapiens (Human), UniProt P56373).
Solution: 6.90

Exercise: Find the measured pIC50: item `CC(C)Oc1ccc(/N=c2\[nH]c(=O)n(CC(=O)NCC(=O)O)c(=O)n2Cc2ccc(Cl)cc2)cc1F` , target or system human P2X3 receptor (Homo sapiens (Human), UniProt P56373).
Solution: 7.36

Exercise: Find the measured pIC50: item `CC(C)Oc1ccc(Nc2nc(=O)n(Cc3ccccn3)c(=O)n2Cc2ccc(Cl)cc2)cc1F` , target or system human P2X3 receptor (Homo sapiens (Human), UniProt P56373).
Solution: 7.60

Exercise: Find the measured pIC50: item `CC(C)Oc1ccc(/N=c2\[nH]c(=O)n([C@H](C)CC(=O)O)c(=O)n2Cc2ccc(Cl)cc2)cc1Cl` , target or system human P2X3 receptor (Homo sapiens (Human), UniProt P56373).
Solution: 8.10

Exercise: Find the measured pIC50: item `COC(=O)C(C)(C)Cn1c(=O)[nH]/c(=N\c2ccc(OC(C)C)c(Cl)c2)n(Cc2ccc(Cl)cc2)c1=O` , target or system human P2X3 receptor (Homo sapiens (Human), UniProt P56373).
Solution: 8.10

Exercise: Find the measured pIC50: item `COC(=O)C(C)(C)Cn1c(=O)[nH]/c(=N\c2cccc(OC(F)(F)F)c2)n(Cc2ccc(Cl)cc2)c1=O` , target or system human P2X3 receptor (Homo sapiens (Human), UniProt P56373).
Solution: 7.43

Exercise: Find the measured pIC50: item `CC(C)Oc1ccc(/N=c2\[nH]c(=O)n(C[C@@H](C)C(=O)O)c(=O)n2Cc2ccc(Cl)cc2)cc1Cl` , target or system human P2X3 receptor (Homo sapiens (Human), UniProt P56373).
Solution: 7.80

Exercise: Find the measured pIC50: item `COC(=O)Cn1c(=O)[nH]/c(=N\c2ccc(OC(C)C)c(F)c2)n(Cc2ccc(C)cc2)c1=O` , target or system human P2X3 receptor (Homo sapiens (Human), UniProt P56373).
Solution: 7.36
